MEASURED_TARGET: T1, full-length beta-Catenin (Uniprot ID P35222) (Homo sapiens (Human), UniProt P35222 2-781)
T1 construct: also called B-Catenin; bCat
T1 sequence: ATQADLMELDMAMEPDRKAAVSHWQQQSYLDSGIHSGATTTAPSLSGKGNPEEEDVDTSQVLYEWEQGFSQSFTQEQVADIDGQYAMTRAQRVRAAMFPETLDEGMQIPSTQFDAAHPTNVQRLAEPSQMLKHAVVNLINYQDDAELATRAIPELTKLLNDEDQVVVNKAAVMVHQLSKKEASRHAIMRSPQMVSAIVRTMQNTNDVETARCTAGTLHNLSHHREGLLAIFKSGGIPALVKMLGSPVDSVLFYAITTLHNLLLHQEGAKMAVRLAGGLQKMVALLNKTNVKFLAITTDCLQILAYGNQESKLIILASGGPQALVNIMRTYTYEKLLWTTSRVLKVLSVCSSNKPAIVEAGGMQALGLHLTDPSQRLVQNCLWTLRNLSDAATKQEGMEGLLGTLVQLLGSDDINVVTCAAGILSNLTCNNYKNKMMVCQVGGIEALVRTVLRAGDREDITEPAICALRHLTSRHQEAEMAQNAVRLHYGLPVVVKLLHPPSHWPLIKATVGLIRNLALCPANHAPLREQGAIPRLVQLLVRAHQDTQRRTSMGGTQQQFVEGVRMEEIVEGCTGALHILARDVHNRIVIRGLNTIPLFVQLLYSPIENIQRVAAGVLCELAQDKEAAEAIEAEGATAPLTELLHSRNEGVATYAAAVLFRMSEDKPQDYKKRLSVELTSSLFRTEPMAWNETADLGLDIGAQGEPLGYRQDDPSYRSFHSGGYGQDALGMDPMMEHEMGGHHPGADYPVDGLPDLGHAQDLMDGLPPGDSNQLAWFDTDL
PROTOCOL_DESCRIPTION: Alphascreen competition; biotin-TCF4(10-53) probe with full-length beta-catenin
Protocol: Equal volume of the titrated peptide was added to the plate and incubated for 15 minutes at 20° C. Then 4 uL of donor and 4 uL acceptor beads at 10 ug/mL were added to the plate, for a 16 uL reaction pool and protected from light for 60 minutes at 20° C. prior to read. Reads were performed on a CLARIOstar plate reader (BMG Labtech) in duplicate, and data were fitted to a 1:1 binding model with hill slope using an in-house script. All provided concentrations are final concentrations.
Starred links: 1 amine or outer side, 2 acyl side, 3 side chain; linkers in the order of their positions; H or OH if unused. Positions of bridges follow the written chain, without caps; N, C: chain ends. Non-standard residues stand in square brackets, D forms with d. Primed or numbered codes have the meaning given here. B5(5) = 2,2-bis(4-pentenyl)glycine, 2-amino-2-(pent-4-en-1-yl)hept-6-enoic acid (stitching residue), C=CCCCC(CCCC=C)(N[*:1])C(=O)[*:2]; PyrS″ = (S)-1-((allyloxy)carbonyl)-3-aminopyrrolidine-3-carboxylic acid (stapling residue), C=CCOC(=O)N1CC[C@@](N[*:1])(C(=O)[*:2])C1; 1Nal = N[C@@H](Cc1cccc2ccccc12)C(=O)O; 2Nal = N[C@@H](Cc1ccc2ccccc2c1)C(=O)O; αAllylPro = C=CC[C@@]1(C(=O)O)CCCN1; R8 = C=CCCCCCC[C@@](C)(N)C(=O)O; S8 = C=CCCCCCC[C@](C)(N)C(=O)O
READOUT_LABEL: EC50 (µM)

binder="Ac-FDA[R8]DDAA[2Nal]V[PyrS″]FWQ-NH2 (staple 4-11, Stapled peptide composition) [I-112]" qualifying_sign=≥ observed_value=10
binder="Ac-[αAllylPro]DA[B5(5)]DQAAFV[S8]FWQ-NH2 (staple 1-4, 4-11, Stitched (two-staple) peptide composition) [I-127]" qualifying_sign== observed_value=0.552
binder="Ac-FDA[R8]D[1Nal]AAFV[PyrS″]FWQ-NH2 (staple 4-11, Stapled peptide composition) [I-114]" qualifying_sign== observed_value=4.74
